Molecular target: MMP-2 (Homo sapiens)
Construct: purchased Sino Biological 10082-HNAH
Sequence (P08253 110-660): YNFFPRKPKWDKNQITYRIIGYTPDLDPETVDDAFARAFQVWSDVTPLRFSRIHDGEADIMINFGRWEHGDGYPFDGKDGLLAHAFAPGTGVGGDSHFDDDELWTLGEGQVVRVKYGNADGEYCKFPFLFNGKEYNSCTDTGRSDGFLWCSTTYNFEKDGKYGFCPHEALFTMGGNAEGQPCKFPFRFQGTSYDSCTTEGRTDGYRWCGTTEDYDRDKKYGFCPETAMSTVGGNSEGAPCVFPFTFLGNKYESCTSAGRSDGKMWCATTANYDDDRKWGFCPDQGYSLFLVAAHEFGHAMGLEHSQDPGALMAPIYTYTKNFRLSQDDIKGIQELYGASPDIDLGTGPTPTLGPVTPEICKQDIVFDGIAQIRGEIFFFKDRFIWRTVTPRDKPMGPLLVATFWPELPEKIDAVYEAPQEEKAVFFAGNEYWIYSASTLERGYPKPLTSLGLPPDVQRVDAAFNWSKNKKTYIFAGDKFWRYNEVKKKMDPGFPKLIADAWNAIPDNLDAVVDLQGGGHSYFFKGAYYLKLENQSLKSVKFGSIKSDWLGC
Experiment: MMP-2 inhibition assay (fluorogenic peptide substrate)
Assay type: biochemical
Settings: MMP-2; concentration 0.08 µM
result_type: remaining activity (%)

1. Cc1cc(=O)[nH]c(-n2nc(C)c(CCC(=O)NCCNC(=O)c3cncc(O)c3)c2C)n1 ... 86.73
2. O=C(CNC(=O)NC12CC3CC(CC(C3)C1)C2)NCCCCCCCCNC(=O)c1cncc(O)c1 ... 108.75
3. Cc1cc(=O)[nH]c(-n2nc(C)c(CCC(=O)NCCOCCOCCNC(=O)c3cncc(O)c3)c2C)n1 ... 88.67
4. Cc1cc(=O)[nH]c(-n2nc(C)c(CCC(=O)NCCOCCOCCNC(=O)CCC(=O)NCc3c[nH]nn3)c2C)n1 ... 75.74
5. Cc1cc(=O)[nH]c(-n2nc(C)c(CCC(=O)NCCSCC(=O)NCc3c[nH]nn3)c2C)n1 ... 98.28
6. Cc1cc(=O)[nH]c(-n2nc(C)c(CCC(=O)NCCCCCCCCNC(=O)c3cncc(O)c3)c2C)n1 ... 100.17
7. Cc1cc(=O)[nH]c(-n2nc(C)c(CCC(=O)NCCNC(=O)CSCCNC(=O)c3cncc(O)c3)c2C)n1 ... 92.98
8. O=C(CCCCCCC(=O)NCC12CC3CC(CC(C3)C1)C2)NCc1c[nH]nn1 ... 87.26
9. O=C(C=CCCCCNC(=O)c1cncc(O)c1)CC(=O)NCC12CC3CC(CC(C3)C1)C2 ... 102.47

---

Target: MMP-9 (Homo sapiens, UniProt P14780)
Construct: purchased Sino Biological 10327-HNAH
Sequence (P14780 107-707 limits assumed): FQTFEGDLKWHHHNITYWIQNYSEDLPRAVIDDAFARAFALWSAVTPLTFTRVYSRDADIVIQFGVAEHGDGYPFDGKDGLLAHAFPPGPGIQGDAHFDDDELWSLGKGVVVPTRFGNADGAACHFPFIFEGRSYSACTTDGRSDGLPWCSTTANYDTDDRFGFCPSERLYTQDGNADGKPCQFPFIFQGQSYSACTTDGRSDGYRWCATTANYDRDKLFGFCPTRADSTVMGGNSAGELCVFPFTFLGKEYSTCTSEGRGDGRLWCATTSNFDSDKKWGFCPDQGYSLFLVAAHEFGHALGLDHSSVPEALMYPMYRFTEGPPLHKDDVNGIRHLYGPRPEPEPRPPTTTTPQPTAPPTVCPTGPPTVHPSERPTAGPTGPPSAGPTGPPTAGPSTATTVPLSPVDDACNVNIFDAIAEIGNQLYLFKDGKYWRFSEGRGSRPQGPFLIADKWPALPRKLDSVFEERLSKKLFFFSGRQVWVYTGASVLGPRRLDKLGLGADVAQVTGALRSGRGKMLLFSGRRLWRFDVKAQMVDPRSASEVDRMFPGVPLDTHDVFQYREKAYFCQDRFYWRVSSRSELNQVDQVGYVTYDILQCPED
Experiment: MMP-9 inhibition assay (fluorogenic peptide substrate)
Assay type: biochemical
Parameters: scale not given here
Conditions: MMP-9; concentration 0.08 µM
Below, each entry is listed with its recorded remaining enzyme activity (% of control).
result_type: remaining enzyme activity (% of control)

1. O=C(CCCCCCC(=O)NCC12CC3CC(CC(C3)C1)C2)NCc1c[nH]nn1 [66+787 Linker 4] ... 101.70
2. O=C(CNC(=O)NC12CC3CC(CC(C3)C1)C2)NCc1c[nH]nn1 [66+787 Linker 1] ... 90.03
3. Cc1cc(=O)[nH]c(-n2nc(C)c(CCC(=O)NCCOCCOCCNC(=O)c3cncc(O)c3)c2C)n1 [693+828 Linker 10] ... 97.89
4. O=C(C=CCCCCNC(=O)c1cncc(O)c1)CC(=O)NCC12CC3CC(CC(C3)C1)C2 [66+828 Linker 12] ... 103.52
5. Cc1cc(=O)[nH]c(-n2nc(C)c(CCC(=O)NCCSCC(=O)NCc3c[nH]nn3)c2C)n1 [693+787 Linker 24] ... 94.26
6. O=C(CNC(=O)NC12CC3CC(CC(C3)C1)C2)NCCSCC(=O)NCc1c[nH]nn1 [66+787 Linker 24] ... 99.22
7. Cc1cc(=O)[nH]c(-n2nc(C)c(CCC(=O)NCc3c[nH]nn3)c2C)n1 [693+787 Linker 1] ... 91.27
8. Cc1cc(=O)[nH]c(-n2nc(C)c(CCC(=O)NCCNC(=O)c3cncc(O)c3)c2C)n1 [693+828 Linker 1] ... 98.15
9. O=C(CNC(=O)NC12CC3CC(CC(C3)C1)C2)NCCOCCOCCNC(=O)c1cncc(O)c1 [66+828 Linker 10] ... 104.97
10. Cc1cc(=O)[nH]c(-n2nc(C)c(CCC(=O)NCCCCCCCCNC(=O)CCC(=O)NCc3c[nH]nn3)c2C)n1 [693+787 Linker 4] ... 100.71
11. O=C(CNC(=O)NC12CC3CC(CC(C3)C1)C2)NCCCCCCCCNC(=O)c1cncc(O)c1 [66+828 Linker 4] ... 92.81
12. Cc1cc(=O)[nH]c(-n2nc(C)c(CCC(=O)NCCCCCCCCNC(=O)c3cncc(O)c3)c2C)n1 [693+828 Linker 4] ... 97.75
13. Cc1cc(=O)[nH]c(-n2nc(C)c(CCC(=O)NCCOCCOCCNC(=O)CCC(=O)NCc3c[nH]nn3)c2C)n1 [693+787 Linker 10] ... 96.44

---

Listed next: entries and their corresponding remaining activity (%).
Target: MMP-2 (Homo sapiens)
Construct: purchased Sino Biological 10082-HNAH
Sequence (P08253 110-660): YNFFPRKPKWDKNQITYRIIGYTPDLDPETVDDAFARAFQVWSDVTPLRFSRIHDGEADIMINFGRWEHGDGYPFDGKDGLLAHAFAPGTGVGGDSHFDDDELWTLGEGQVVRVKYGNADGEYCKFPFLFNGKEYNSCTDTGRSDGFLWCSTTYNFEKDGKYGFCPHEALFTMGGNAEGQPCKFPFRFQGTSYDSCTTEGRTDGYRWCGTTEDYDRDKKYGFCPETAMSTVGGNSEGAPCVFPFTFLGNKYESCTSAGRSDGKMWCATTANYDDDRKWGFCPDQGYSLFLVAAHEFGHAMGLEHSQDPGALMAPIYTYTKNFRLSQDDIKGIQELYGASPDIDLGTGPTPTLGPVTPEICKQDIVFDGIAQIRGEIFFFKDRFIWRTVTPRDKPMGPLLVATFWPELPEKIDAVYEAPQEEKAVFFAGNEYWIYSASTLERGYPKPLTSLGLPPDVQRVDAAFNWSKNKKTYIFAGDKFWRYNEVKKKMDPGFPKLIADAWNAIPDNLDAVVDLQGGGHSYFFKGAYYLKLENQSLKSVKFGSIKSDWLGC
Assay: MMP-2 inhibition assay (fluorogenic peptide substrate)
Type: biochemical
Settings: MMP-2; concentration 9.75 µM
result_type: remaining activity (%)

1) O=C(CCCCCCC(=O)NCC12CC3CC(CC(C3)C1)C2)NCc1c[nH]nn1 [66+787 Linker 4] ... 76.03
2) O=C(CNC(=O)NC12CC3CC(CC(C3)C1)C2)NCc1c[nH]nn1 [66+787 Linker 1] ... 95.17
3) Cc1cc(=O)[nH]c(-n2nc(C)c(CCC(=O)NCCCCCCCCNC(=O)CCC(=O)NCc3c[nH]nn3)c2C)n1 [693+787 Linker 4] ... 84.93
4) O=C(CCC(=O)NCc1c[nH]nn1)NCCOCCOCCNC(=O)Cn1cnc2c(oc3ccccc32)c1=O [182+787 Linker 10] ... 97.01
5) Cc1cc(=O)[nH]c(-n2nc(C)c(CCC(=O)NCCCCCCCCNC(=O)c3cncc(O)c3)c2C)n1 [693+828 Linker 4] ... 100.31
6) O=C(CCC(=O)NCc1c[nH]nn1)NCCCCCCCCNC(=O)Cn1cnc2c(oc3ccccc32)c1=O [182+787 Linker 4] ... 75.23
7) Cc1cc(=O)[nH]c(-n2nc(C)c(CCC(=O)NCCOCCOCCNC(=O)CCC(=O)NCc3c[nH]nn3)c2C)n1 [693+787 Linker 10] ... 78.88

---

Target: MMP-2 (Homo sapiens)
Construct: purchased Sino Biological 10082-HNAH
Experiment: MMP-2 inhibition assay (fluorogenic peptide substrate)
Format: biochemical
Settings: MMP-2; concentration 500.00 µM
Please note: remaining activity (%) exactly at 70 is -1. Only values below 70 get 1.

1. Cc1cc(=O)[nH]c(-n2nc(C)c(CCC(=O)NCCNC(=O)CC(=O)C=CCCCCNC(=O)c3cnc4c(c3)nc(O)n4C)c2C)n1 [693+826 Linker 12] ... 1
2. Cn1c(O)nc2cc(C(=O)NCCCC/C=C/C(=O)CC(=O)NCC34CC5CC(CC(C5)C3)C4)cnc21 [66+826 Linker 12] ... -1
3. Cn1c(O)nc2cc(C(=O)NCC34CC5CC(CC(C5)C3)C4)cnc21 [66+826 Linker 1] ... -1
4. Cn1c(O)nc2cc(C(=O)NCCOCCOCCNC(=O)CNC(=O)NC34CC5CC(CC(C5)C3)C4)cnc21 [66+826 Linker 10] ... -1
5. Cn1c(O)nc2cc(C(=O)NCCCCCCCCNC(=O)CNC(=O)NC34CC5CC(CC(C5)C3)C4)cnc21 [66+826 Linker 4] ... -1
6. Cc1cc(=O)[nH]c(-n2nc(C)c(CCC(=O)NCCNC(=O)c3cnc4c(c3)nc(O)n4C)c2C)n1 [693+826 Linker 1] ... -1
7. Cn1c(O)nc2cc(C(=O)NCCSCC(=O)NCC34CC5CC(CC(C5)C3)C4)cnc21 [66+826 Linker 24] ... -1
8. Cc1cc(=O)[nH]c(-n2nc(C)c(CCC(=O)NCCSCC(=O)NCCNC(=O)c3cnc4c(c3)nc(O)n4C)c2C)n1 [693+826 Linker 24] ... 1

Origin of the recorded values: paper PMC10023787
